// provenance: paper PMC9822073

- Test system: CDK9/cyclin T (Homo sapiens, UniProt P50750)
- Sequence (P50750 whole entry): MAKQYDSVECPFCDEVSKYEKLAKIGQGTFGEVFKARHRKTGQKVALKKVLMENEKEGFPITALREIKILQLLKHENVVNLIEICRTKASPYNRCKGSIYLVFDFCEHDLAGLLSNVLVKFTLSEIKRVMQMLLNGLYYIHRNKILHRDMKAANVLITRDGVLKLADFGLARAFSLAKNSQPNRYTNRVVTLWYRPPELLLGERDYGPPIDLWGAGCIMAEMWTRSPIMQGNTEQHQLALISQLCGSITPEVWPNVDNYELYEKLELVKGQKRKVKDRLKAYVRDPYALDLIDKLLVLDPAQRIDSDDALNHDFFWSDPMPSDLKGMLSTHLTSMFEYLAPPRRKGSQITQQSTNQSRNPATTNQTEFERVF
- Sequence (O60563 whole entry partner): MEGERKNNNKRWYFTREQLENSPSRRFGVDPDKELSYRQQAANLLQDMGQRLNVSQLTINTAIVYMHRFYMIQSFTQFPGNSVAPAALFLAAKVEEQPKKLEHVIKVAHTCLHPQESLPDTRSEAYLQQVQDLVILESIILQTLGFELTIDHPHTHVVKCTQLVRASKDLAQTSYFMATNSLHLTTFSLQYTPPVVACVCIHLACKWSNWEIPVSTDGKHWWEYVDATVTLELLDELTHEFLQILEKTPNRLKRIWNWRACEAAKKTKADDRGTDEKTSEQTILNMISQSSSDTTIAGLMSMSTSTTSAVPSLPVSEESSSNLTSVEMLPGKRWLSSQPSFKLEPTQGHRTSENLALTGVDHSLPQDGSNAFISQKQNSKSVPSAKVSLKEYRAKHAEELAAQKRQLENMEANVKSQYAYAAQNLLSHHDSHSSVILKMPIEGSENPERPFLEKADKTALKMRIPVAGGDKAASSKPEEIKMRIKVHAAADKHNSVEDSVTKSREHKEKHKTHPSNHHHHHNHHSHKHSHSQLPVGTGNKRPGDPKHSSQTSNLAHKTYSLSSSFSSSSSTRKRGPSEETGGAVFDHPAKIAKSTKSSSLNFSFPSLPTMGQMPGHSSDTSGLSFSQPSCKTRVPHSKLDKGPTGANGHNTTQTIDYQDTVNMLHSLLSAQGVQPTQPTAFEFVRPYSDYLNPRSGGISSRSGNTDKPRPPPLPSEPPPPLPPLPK
- Assay name: In vitro luminescent CDK9 kinase assay (Kinase-Glo MAX)
- Assay type: biochemical
- Recorded conditions: mean ± SD; read-out: CDK9 IC50

{"columns": ["Compound", "Unit of measure", "IC50"],
 "data": [
  ["COc1ccc(NC(=O)CSc2nc3ccccc3c(=O)n2CCc2ccc(S(N)(=O)=O)cc2)cc1 [Compound 6]", "nM", 463],
  ["Cc1ccc2nc(-c3cccc(Br)c3)[nH]c(=O)c2c1 [Compound 25]", "nM", 142],
  ["NS(=O)(=O)c1ccc(CCn2c(SCC(=O)Nc3ccc(F)cc3)nc3ccccc3c2=O)cc1 [Compound 11]", "nM", 336],
  ["Cc1ccc(NC(=O)c2cccc(Br)c2)c(C(=O)O)c1 [Compound 23]", "nM", 210],
  ["O=c1[nH]c(-c2cccs2)nc2ccc(I)cc12 [Compound 18]", "nM", 296]
]}
